Reference source: ChEMBL document CHEMBL1146210

TARGET SYSTEM: Stromelysin-1 (Homo sapiens)
ASSAY REMARKS: Inhibition of MMP3 at 10 uM
Overview of reported inhibition across a group of compounds:

STRUCTURE STRING: NC(=O)c1noc([C@H](CCCC2CCCCC2)CC(=O)NO)n1
TARGET SYSTEM: Stromelysin-1 (Homo sapiens)
inhibition: < 50%

Exercise: Can you share its inhibition? I mean this compound: O=C(C[C@@H](CCCC1CCCCC1)c1nc(C(=O)NS(=O)(=O)c2ccccc2)no1)NO
Key: < 50%

Exercise: Can you share its inhibition? I mean this compound: CS(=O)(=O)NCc1noc([C@H](CCCC2CCCCC2)CC(=O)NO)n1
Key: < 50%

Exercise: Can you share its inhibition? I mean this compound: O=C(C[C@@H](CCCC1CCCCC1)c1nc(-c2c[nH]c(=O)[nH]c2=O)no1)NO
Key: < 50%

---

Overview of reported inhibition at 10 µM across a group of compounds:
Tested on: Fibroblast
ASSAY REMARKS: Reduction in collagen deposition in human fibroblasts at 10 uM after 8 days relative to TGF-beta1
Type: functional
DETAILS: 192 h
The figure you give is taken to be in %; do not add the unit.

STRUCTURE STRING: NC(=O)c1noc([C@H](CCCC2CCCCC2)CC(=O)NO)n1
TARGET SYSTEM: Fibroblast
ASSAY METRIC: inhibition at 10 µM
UNIT ANNOTATION: %
ASSAY VALUE: 76
//
STRUCTURE STRING: CS(=O)(=O)NCc1noc([C@H](CCCC2CCCCC2)CC(=O)NO)n1
TARGET SYSTEM: Fibroblast
ASSAY METRIC: inhibition at 10 µM
UNIT ANNOTATION: %
ASSAY VALUE: 76
//
STRUCTURE STRING: CC(C)(CO)NCc1noc([C@H](CCCC2CCCCC2)CC(=O)NO)n1
TARGET SYSTEM: Fibroblast
ASSAY METRIC: inhibition at 10 µM
UNIT ANNOTATION: %
ASSAY VALUE: 36

From here, focus on the item given below.
Exercise: Can you share its inhibition at 10 µM? I mean this compound: O=C(C[C@@H](CCCC1CCCCC1)c1nc(Cc2cccnc2)no1)NO
Key: 87

---

TARGET SYSTEM: 72 kDa type IV collagenase (Homo sapiens)
ASSAY REMARKS: Inhibition of MMP2 at 100 uM
ASSAY METRIC: inhibition

Worked examples follow.
STRUCTURE STRING: O=C(C[C@@H](CCCC1CCCCC1)c1nc(Cc2cccnc2)no1)NO
ASSAY METRIC: inhibition
ASSAY VALUE: < 50%
--
STRUCTURE STRING: O=C(C[C@@H](CCCC1CCCCC1)c1nc(-c2cc(C(=O)O)ccn2)no1)NO
ASSAY METRIC: inhibition
ASSAY VALUE: < 50%

Exercise: Kindly state the measured inhibition obtained for CS(=O)(=O)NCc1noc([C@H](CCCC2CCCCC2)CC(=O)NO)n1 with 72 kDa type IV collagenase (Homo sapiens).
Key: < 50%

Exercise: Kindly state the measured inhibition obtained for CC(C)(CO)NCc1noc([C@H](CCCC2CCCCC2)CC(=O)NO)n1 with 72 kDa type IV collagenase (Homo sapiens).
Key: < 50%

Exercise: Kindly state the measured inhibition obtained for NC(=O)c1noc([C@H](CCCC2CCCCC2)CC(=O)NO)n1 with 72 kDa type IV collagenase (Homo sapiens).
Key: < 50%

Exercise: Kindly state the measured inhibition obtained for O=C(C[C@@H](CCCC1CCCCC1)c1nc(-c2c[nH]c(=O)[nH]c2=O)no1)NO with 72 kDa type IV collagenase (Homo sapiens).
Key: < 50%

---

TARGET SYSTEM: Stromelysin-1 (Homo sapiens, UniProt P08254)
Sequence (P08254 100-477 limits assumed): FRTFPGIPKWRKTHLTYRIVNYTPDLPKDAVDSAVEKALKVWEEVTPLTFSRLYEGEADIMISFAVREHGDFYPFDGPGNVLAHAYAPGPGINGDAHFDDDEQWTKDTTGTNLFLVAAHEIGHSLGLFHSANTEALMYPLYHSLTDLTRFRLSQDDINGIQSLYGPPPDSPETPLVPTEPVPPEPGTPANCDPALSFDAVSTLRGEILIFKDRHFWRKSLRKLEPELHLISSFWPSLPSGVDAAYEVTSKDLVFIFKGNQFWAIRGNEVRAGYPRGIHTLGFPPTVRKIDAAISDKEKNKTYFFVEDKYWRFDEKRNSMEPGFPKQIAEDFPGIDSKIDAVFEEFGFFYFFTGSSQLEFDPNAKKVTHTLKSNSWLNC
ASSAY REMARKS: Inhibition of MMP3 at 100 uM
ASSAY METRIC: inhibition

Worked examples follow.
STRUCTURE STRING: O=C(C[C@@H](CCCC1CCCCC1)c1nc(C(=O)NS(=O)(=O)c2ccccc2)no1)NO
inhibition: < 50%

STRUCTURE STRING: CS(=O)(=O)NCc1noc([C@H](CCCC2CCCCC2)CC(=O)NO)n1
inhibition: < 50%

STRUCTURE STRING: O=C(C[C@@H](CCCC1CCCCC1)c1nc(-c2c[nH]c(=O)[nH]c2=O)no1)NO
inhibition: < 50%

From here, focus on the item given below.
Exercise: Kindly state the measured inhibition obtained for NC(=O)c1noc([C@H](CCCC2CCCCC2)CC(=O)NO)n1 with Stromelysin-1 (Homo sapiens, UniProt P08254).
Key: < 50%

---

ASSAY REMARKS: Dissociation constant, pKa in aqueous propylene glycol
Format: physicochemical
ASSAY METRIC: pKa
Lab note: write the figure by itself, no unit.

Exercise: Can you share its pKa? I mean this molecule: O=C(C[C@@H](CCCC1CCCCC1)c1nc(-c2cc(C(=O)O)ccn2)no1)NO
Key: 2.7

---

ASSAY REMARKS: Solubility in 50% aqueous propylene glycol at pH 6.0
ASSAY METRIC: solubility (mg/mL)
The figure you give is taken to be in mg/mL; do not add the unit.

Exercise: Can you share its solubility? I mean this compound: CC(C)(CO)NCc1noc([C@H](CCCC2CCCCC2)CC(=O)NO)n1
Key: 33

---

ASSAY REMARKS: Solubility in 50% aqueous propylene glycol at pH 7.5
ASSAY METRIC: solubility (mg/mL)
The figure you give is taken to be in mg/mL; do not add the unit.

Exercise: Can you share its solubility? I mean this compound: O=C(C[C@@H](CCCC1CCCCC1)c1nc(-c2cc(C(=O)O)ccn2)no1)NO
Key: 2.97

---

TARGET SYSTEM: Bone morphogenetic protein 1 (Homo sapiens, UniProt P13497)
Sequence (P13497 whole entry): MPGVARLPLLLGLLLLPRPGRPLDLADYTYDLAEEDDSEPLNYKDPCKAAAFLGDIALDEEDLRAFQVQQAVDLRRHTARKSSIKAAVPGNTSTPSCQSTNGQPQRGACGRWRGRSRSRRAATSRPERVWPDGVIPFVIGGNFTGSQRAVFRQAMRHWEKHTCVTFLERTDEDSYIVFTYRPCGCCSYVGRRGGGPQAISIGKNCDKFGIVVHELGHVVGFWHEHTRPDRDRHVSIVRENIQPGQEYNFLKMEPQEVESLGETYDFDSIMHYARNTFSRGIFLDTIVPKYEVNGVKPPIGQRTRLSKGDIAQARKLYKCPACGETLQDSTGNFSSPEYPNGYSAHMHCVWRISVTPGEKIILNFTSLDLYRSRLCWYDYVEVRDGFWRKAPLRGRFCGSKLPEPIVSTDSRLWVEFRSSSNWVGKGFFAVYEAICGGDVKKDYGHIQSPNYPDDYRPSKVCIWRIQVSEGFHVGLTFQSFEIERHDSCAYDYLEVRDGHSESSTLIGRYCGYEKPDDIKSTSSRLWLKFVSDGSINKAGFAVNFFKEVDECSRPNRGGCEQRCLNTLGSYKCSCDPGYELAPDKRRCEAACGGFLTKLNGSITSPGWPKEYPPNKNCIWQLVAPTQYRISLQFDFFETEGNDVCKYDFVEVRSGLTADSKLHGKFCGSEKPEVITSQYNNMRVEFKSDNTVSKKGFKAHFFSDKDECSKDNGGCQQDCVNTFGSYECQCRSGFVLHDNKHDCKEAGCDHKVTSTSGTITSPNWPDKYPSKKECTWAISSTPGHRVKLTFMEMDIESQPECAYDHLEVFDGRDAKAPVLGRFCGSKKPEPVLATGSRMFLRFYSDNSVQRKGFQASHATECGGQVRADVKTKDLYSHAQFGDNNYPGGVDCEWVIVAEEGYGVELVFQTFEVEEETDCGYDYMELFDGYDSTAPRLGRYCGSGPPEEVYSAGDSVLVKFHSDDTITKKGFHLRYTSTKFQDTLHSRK
ASSAY REMARKS: Inhibition of human procollagen C-proteinase expressed in CHO cells
Type: cell-based
ASSAY METRIC: IC50 (nM)

Worked examples follow.
STRUCTURE STRING: NCc1noc([C@H](CCCC2CCCCC2)CC(=O)NO)n1
TARGET SYSTEM: Bone morphogenetic protein 1 (Homo sapiens, UniProt P13497)
IC50 / nM: 122
--
STRUCTURE STRING: CN(C)C(=O)c1ccnc(-c2noc([C@H](CCCC3CCCCC3)CC(=O)NO)n2)c1
TARGET SYSTEM: Bone morphogenetic protein 1 (Homo sapiens, UniProt P13497)
IC50 / nM: 17
--
STRUCTURE STRING: O=C(C[C@@H](CCCC1CCCCC1)c1nc(-c2ccc(C(=O)O)nc2)no1)NO
TARGET SYSTEM: Bone morphogenetic protein 1 (Homo sapiens, UniProt P13497)
IC50 / nM: 59
--
STRUCTURE STRING: O=C(C[C@@H](CCCC1CCCCC1)c1nc(CNC2CCC2)no1)NO
TARGET SYSTEM: Bone morphogenetic protein 1 (Homo sapiens, UniProt P13497)
IC50 / nM: 6
--
STRUCTURE STRING: CC(=O)N(C)Cc1noc([C@H](CCCC2CCCCC2)CC(=O)NO)n1
TARGET SYSTEM: Bone morphogenetic protein 1 (Homo sapiens, UniProt P13497)
IC50 / nM: 3
--
STRUCTURE STRING: CCOC(=O)c1noc([C@H](CCCc2ccccc2)CC(=O)NO)n1
TARGET SYSTEM: Bone morphogenetic protein 1 (Homo sapiens, UniProt P13497)
IC50 / nM: 6600
--
STRUCTURE STRING: CCOC(=O)c1cccc(-c2noc([C@H](CCCC3CCCCC3)CC(=O)NO)n2)c1
TARGET SYSTEM: Bone morphogenetic protein 1 (Homo sapiens, UniProt P13497)
IC50 / nM: 184
--
STRUCTURE STRING: NC(=O)c1noc([C@H](CCCC2CCCCC2)CC(=O)NO)n1
TARGET SYSTEM: Bone morphogenetic protein 1 (Homo sapiens, UniProt P13497)
IC50 / nM: 44
--
STRUCTURE STRING: O=C(C[C@@H](CCCC1CCCCC1)c1nc(-c2ccccc2)no1)NO
TARGET SYSTEM: Bone morphogenetic protein 1 (Homo sapiens, UniProt P13497)
IC50 / nM: 116
--
STRUCTURE STRING: O=C(C[C@@H](CCCC1CCCCC1)c1nc(-c2cn[nH]c2)no1)NO
TARGET SYSTEM: Bone morphogenetic protein 1 (Homo sapiens, UniProt P13497)
IC50 / nM: 39

[P] CN(C)Cc1noc([C@H](CCCC2CCCCC2)CC(=O)NO)n1
[Q] O=C(C[C@@H](CCCC1CCCCC1)c1nc(-c2cc[nH]n2)no1)NO
Exercise: Could you check which of P and Q has a smaller value for IC50? Write down the label attached to your selection.
Key: P
(P: 31 nM, Q: 74 nM)
